- Tested on: KM12 colon
- test.description: NCI-60 one-dose screen, 48 h
- conditions.used: 10 µM unless noted
About 83,000 compounds went through this panel and 20% of them were active in at least one assay; those are over-represented in the sample as a whole. The source made the active and inactive calls. The calls were made as follows: active = growth percent below 10; inactive = the rest.
Pick one: active, inactive

Reference set (5 entries):
compound	assigned.class
CN(C)c1ccc(/C=C/c2sc3ccc4ccccc4c3[n+]2C)cc1	active
CC/C(=C(/CC)c1ccc(O)cc1)c1ccc(O)cc1	inactive
COc1cc(/C=C/C(=O)CC(=O)/C=C/c2ccc(O)c(OC)c2)ccc1O	active
O=C(Cc1nc2cc(Cl)c(Cl)cc2nc1CC(=O)c1ccccc1)c1ccccc1	inactive
Cc1ccccc1NC(=O)Cc1csc2[n+]1C(=O)/C(=C/c1ccc([N+](=O)[O-])cc1)S2	inactive

INPUT: Record request — test call for CCOC(=O)C1=C(C(=O)c2ccccc2)C(c2cccc([N+](=O)[O-])c2)C(C(=O)c2ccccc2)=C(C(=O)OCC)N1
OUTPUT: inactive

INPUT: Record request — test call for CC1(C)CCCC2=C1C(=O)N(SC(Cl)(Cl)Cl)C2=O
OUTPUT: inactive

INPUT: Record request — test call for COC(=O)c1nc(=S)[nH]c(C(=O)OC)c1C(=O)c1ccc(Cl)c(Cl)c1
OUTPUT: inactive

INPUT: Record request — test call for Nc1nc2ncc(CNc3ccc(C(=O)NC(CCC(=O)NC(CCC(=O)NC(CCC(=O)NC(CCC(=O)NC(CCC(=O)O)C(=O)O)C(=O)O)C(=O)O)C(=O)O)C(=O)O)cc3)nc2c(=O)[nH]1 (centres undefined)
OUTPUT: inactive

* * *

- Tested on: U251 CNS
- test.description: NCI-60 one-dose screen, 48 h (100 = growth as untreated, 0 = no growth, -100 = all killed)
- conditions.used: 10 µM unless noted
About 83,000 compounds went through this panel and 20% of them were active in at least one assay; those are over-represented in the sample as a whole.
endpoint.name: growth (%)
State the answer as a number, implicitly in %.

molecule	unit.label	growth
Cc1cc2cccnc2c2ncccc12	%	17.2
N#Cc1c2ccccc2nc2ccccc12	%	94.9

INPUT: Name the recorded growth for CCCCCCCCCCCC[n+]1ccc2ccccc2c1 .
OUTPUT: -53.5

INPUT: Name the recorded growth for CCCCN(CCCC)CCCCCCCCCCO .
OUTPUT: 102

* * *

- Tested on: SNB-75 CNS
- test.description: NCI-60 one-dose screen, 48 h (100 = growth as untreated, 0 = no growth, -100 = all killed)
- conditions.used: 10 µM unless noted
The panel holds about 83,000 compounds, 20% with a hit somewhere; the sample as a whole holds those more often.
endpoint.name: growth (%)
State the answer as a number, implicitly in %.

compound	endpoint.name	reading
Cc1cc(C(=C2C=CC(=Nc3ccccc3)C=C2)c2ccc(Nc3ccccc3)cc2)ccc1N	growth	-74.6
O=C1/C(=C\c2ccc([N+](=O)[O-])cc2)CS(=O)(=O)C/C1=C/c1ccc([N+](=O)[O-])cc1	growth	-89.6
Cn1c(-c2ccccc2)c(/C=C/C2=[N+](C)c3ccccc3C2(C)C)c2ccccc21	growth	20.6
CC1(C)OCC(COC(c2ccccc2)(c2ccccc2)c2ccccc2)O1 (stereo unspecified)	growth	89.3
CCOC(=O)C1=NN(c2ccccc2)C(=O)/C1=C\N1C(=O)/C(=C/c2cccc(O)c2)SC1=S	growth	97.2

INPUT: Name the recorded growth for Cc1ccc(NC2=CC(=O)C(=O)c3ccccc32)cc1 .
OUTPUT: -18.7

INPUT: Name the recorded growth for COc1cc(/C=C/c2ccnc3ccccc23)cc(OC)c1OC .
OUTPUT: -3.85

INPUT: Name the recorded growth for CCC(C)C(N)C(=O)NC(CC(N)=O)C(=O)NC(CC(C)C)C(=O)NC(CCCCN)C(=O)NC(C)C(=O)NC(CC(C)C)C(=O)NC(C)C(=O)NC(C)C(=O)NC(CC(C)C)C(=O)NC(C)C(=O)NC(CCCCN)C(=O)NC(CCCCN)C(=O)NC(C(=O)NC(CC(C)C)C(N)=O)C(C)CC (stereo unspecified) .
OUTPUT: 85.3

INPUT: Name the recorded growth for O=C(NNc1ccccc1)OCc1ccccc1 .
OUTPUT: 114

INPUT: Name the recorded growth for CCCCC(CCc1ccc([N+](=O)[O-])cc1)(C(C)=O)C(=O)OCC (stereo unspecified) .
OUTPUT: 85.1

INPUT: Name the recorded growth for COc1ccc2c(c1)c(CC(=O)O)c(C)n2C(=O)c1ccc(Cl)cc1 .
OUTPUT: 84.7

INPUT: Name the recorded growth for N#C/C(=N\Nc1ccc(Cl)cc1)C(=O)C1CC1 .
OUTPUT: 56.5

INPUT: Name the recorded growth for S=C1SCN(Cc2cccs2)CN1Cc1cccs1 .
OUTPUT: 86.2

INPUT: Name the recorded growth for Cc1cc(C)c(C#N)c(Sc2nc(C)c([N+](=O)[O-])c(C)c2C#N)n1 .
OUTPUT: 66

INPUT: Name the recorded growth for Nc1nc(N)c2cc(Sc3cccc(C(F)(F)F)c3)ccc2n1 .
OUTPUT: 42.7

INPUT: Name the recorded growth for CC(C)(C)c1ccc(CCO)cc1 .
OUTPUT: 96.7

Just for reference, PubChem BioAssay (NCI) is where these values come from.
